Biological target: T1, cynomolgus monkey C16orf54 (cynomolgus monkey (Macaca fascicularis), UniProt Q6UWD8 1-224 (human entry))
T1 construct: also called cyno C16orf54; cyno-C16orf54
T1 chain: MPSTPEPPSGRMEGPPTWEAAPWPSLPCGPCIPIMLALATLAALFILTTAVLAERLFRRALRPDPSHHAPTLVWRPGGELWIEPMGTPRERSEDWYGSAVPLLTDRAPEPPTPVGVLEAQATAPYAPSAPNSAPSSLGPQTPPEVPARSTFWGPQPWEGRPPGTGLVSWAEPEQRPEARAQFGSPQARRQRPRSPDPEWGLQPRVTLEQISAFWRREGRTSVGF
Assay: flow cytometry titration, F279-cyno-C16orf54 cells
Method: Anti-C16orf54 antibodies which bound to human C16orf54 were tested for their binding to cells expressing human C16orf54 and cells expressing cyno C16orf54. […] Median fluorescence intensities for each primary antibody concentration were used to derive a flow EC50/Kd using the one site-specific binding with Hill slope model in Prism (GraphPad Prism® Software). Results are shown as flow EC50 in Table 35.

binder	EC50
R29-8-136C (antibody, V domains shown, Murine monoclonal antibody from a hybridoma) VH: DVQLQESGPGLVKPSQSLSLTCTVTGYSITSDYAWNWIRQFPGNKLEWMGYINYSGSSRYNPSLKSRISITRDTSKNHFFLQLNSVTPEDTATYHCARERYDGVYYGMDYWGQGTSVTVSS VL: DIVMSQSPSSLAVSVGEKVTMSCKSSQSLLYSSNQKNYLAWYQQKPGQSPKLLIYWASTRESGVPDRFTGSGSGTDFTLTISSVKTEDLAVYYCQQYYSYRTFGGGTKLEIK	2.5 nM
R29-7-2A (antibody, V domains shown, Murine monoclonal IgG2b from a hybridoma) VH: EVQLVESGGGLIQPKGSLKLSCVASGFSFNTHAMNWVRQAPGKGLEWVARIRSKSNNYARYYADSVKDRFTISRDDSQSILYLQMNNLKTEDTAMYYCVKQGDGGFAYWGQGTLVTVSA VL: DIVMSQSPSSLAVSVGEKVTMSCKSSQSLLYSSNQKNYLAWYQQRPGQSPKLLIYWASARESGVPDRFTGSGSGTDFTLTISSVKAEDLAVYYCQQYYSYPPTFGAGTKVELK	2.7 nM
R29-7-1C (antibody, V domains shown, Murine monoclonal IgG2a from a hybridoma) VH: DVQLQESGPGLVKPSQSLSLTCTVTGYSITSDYAWNWIRQFPGNKLEWMGYISYSGSIRYNPSLKSRISITRDTSKNQFFLQLNSVTTEDTATYYCAREKYDNYYYAMDYWGQGTSVTVSS VL: DIVMSQSPSSLAVSVGEKVTLSCKSSQNLLYSTNQKNYLAWYQQKPGQSPKLLIYWASTRESGVPDRFTGSGSGTDFTLTISSVKAEDLAVYYCQQYYSYRTFGGGTKLEIK	2.7 nM
R29-67-7A (antibody, V domains shown, Murine monoclonal IgG2a from a hybridoma) VH: DVQLQESGPGLVKPSQSLSLTCTVTGYSITSDYAWNWIRQFPGNKLEWMGYINYSGRTRYNPSLNSRISLTRDTSTNQFFLQLNSVTTEDTATYYCARENYDYEFYAMDYWGQGTSVTVSS VL: DIVMSQSPSSLAVSVGEKVTMSCKSSQNLLYSSNQKNYLAWYQQKPGQSPKLLIYWASTRESGVPDRFTGSGSGTDFTLTISSVKAEDLAVYYCQQYYIYRTFGGGTKLEIK	3.7 nM
R29-8-57B (antibody, V domains shown, Murine monoclonal antibody from a hybridoma) VH: DVQLQESGPGLVKPSQSLSLTCTVTGYSITSDYAWNWIRQFPGNKLEWMGYINYSGSTRYNPSLKSRISITRDTSKNHFFLQLNSVTPEDTATYHCARERYDGVYYGMDYWGQGTSVTVSS VL: DIVMSQSPSSLAVSVGEKVTMSCKSSQSLLYSSNQKNYLAWYQQKPGQSPKLLIYWASTRESGVPDRFTGSGSGTDFTLTISSVKTEDLAVYYCQQYYSYRTFGGGTKLEIK	2.5 nM
